All values here come from patent US9163018B2.

- Tested on: M17 human neuroblastoma cells
- Test summary: Cytotoxicity, M17 human neuroblastoma cells
- Assay type: cell-based
- Test settings: 1 μM test compound
Cytotox (% viable) M17 cells at 1 μM values for the compounds below.
Value and unit, in that order.

INSERT INTO results (compound, readout_value) VALUES
  ('Nc1cc(Cn2cnc3c(O)c(Cl)cc(Cl)c3c2=O)ccn1', '114.8%'),
  ('O=c1c2c(Cl)cc(Cl)c(O)c2ncn1Cc1ccccn1', '97.7%'),
  ('CCn1cnc2c(O)c(Cl)cc(Cl)c2c1=O', '104.3%'),
  ('O=C(Cn1cnc2c(O)cccc2c1=O)Nc1ccccn1', '110.1%'),
  ('CCc1c(O)c(O)cc[n+]1CC.[Cl-]', '102.8%'),
  ('CN(C)Cc1ccc2c(Cl)cc(Cl)c(O)c2n1.Cl', '94%'),
  ('O=c1c2c(Cl)cc(Cl)c(O)c2ncn1-c1ccccn1', '102.7%'),
  ('CCn1c(CN(C)C)nc2c(O)c(Cl)cc(Cl)c2c1=O.Cl', '99.2%');

Prompt: Give the measured Cytotox (% viable) M17 cells at 1 μM of CCCCNC(=O)c1cnc2c(O)cccn2c1=O .
Response: 115%

Prompt: Data request, read-out Cytotox (% viable) M17 cells at 1 μM, for Br.CN1CCCC1Cn1cnc2c(O)c(Cl)cc(Cl)c2c1=O (stereo not drawn)
Response: 106.6%

Prompt: Form field: reported Cytotox (% viable) M17 cells at 1 μM of O=C(O)Cn1cnc2c(O)c(Cl)cc(Cl)c2c1=O
Response: 105%

Prompt: Please give the measured Cytotox (% viable) M17 cells at 1 μM for this compound: O=c1c2c(Cl)cc(Cl)c(O)c2ncn1Cc1cn2ccccc2n1
Response: 109.2%

Prompt: Could you tell me which Cytotox (% viable) M17 cells at 1 μM is on file for Br.CCN(CC)Cc1nc2c(O)c(Cl)cc(Cl)c2c(=O)[nH]1 ?
Response: 106.5%

Prompt: Entry CCC(C)n1cnc2c(O)c(Cl)cc(Cl)c2c1=O (stereo not drawn) : reported Cytotox (% viable) M17 cells at 1 μM = ?
Response: 99.2%

Prompt: Entry Br.CN(C)Cc1nc2c(O)c(Cl)cc(Cl)c2c(=O)[nH]1 has what Cytotox (% viable) M17 cells at 1 μM?
Response: 94.7%

Prompt: Need Cytotox (% viable) M17 cells at 1 μM of O=c1c2c(Cl)cc(Cl)c(O)c2ncn1-c1ccc2[nH]ncc2c1 , thanks.
Response: 104.3%

Prompt: Can you share its Cytotox (% viable) M17 cells at 1 μM? I mean this compound: O=c1c2c(Cl)cc(Cl)c(O)c2ncn1CCN1CCCC1
Response: 103.6%

Prompt: // lookup Cytotox (% viable) M17 cells at 1 μM for CCCc1cnc2c(O)cccn2c1=O
Response: 79.1%

Prompt: Cytotox (% viable) M17 cells at 1 μM for O=C1c2ccccc2C(=O)N1CCn1cnc2c(O)cccc2c1=O ?
Response: 103.9%

Prompt: Query: Cytotox (% viable) M17 cells at 1 μM; subject: CCCCCn1cnc2c(O)c(I)ccc2c1=O
Response: 86.3%

Prompt: Requested read-out: Cytotox (% viable) M17 cells at 1 μM. Entry: Cn1ccnc1Cn1cnc2c(O)c(Cl)cc(Cl)c2c1=O
Response: 112%

Prompt: Could you tell me which Cytotox (% viable) M17 cells at 1 μM is on file for CCCCc1cnc2c(O)cccn2c1=O ?
Response: 73.6%

Prompt: # query: Cytotox (% viable) M17 cells at 1 μM of entry CCc1cnc2c(O)c(I)ccn2c1=O
Response: 82.5%

Prompt: Would you mind telling me what Cytotox (% viable) M17 cells at 1 μM value was observed for O=c1c2ccc(I)c(O)c2ncn1-c1ccc(F)cc1F ?
Response: 90.3%

Prompt: Please report the recorded Cytotox (% viable) M17 cells at 1 μM for CCn1cnc2c(O)c(I)cc(Cl)c2c1=O .
Response: 99.7%

Prompt: Consider the compound CC(C)c1cnc2c(O)c(I)ccn2c1=O and give its measured Cytotox (% viable) M17 cells at 1 μM.
Response: 96.7%

Prompt: What does the data say about its Cytotox (% viable) M17 cells at 1 μM? Entry: Br.CC(C)n1cnc2c(O)c(Cl)cc(Cl)c2c1=O
Response: 94.3%

Prompt: Would you mind telling me what Cytotox (% viable) M17 cells at 1 μM value was observed for O=c1c2c(Cl)cc(Cl)c(O)c2ncn1CCNCc1ccncc1 ?
Response: 103%

Prompt: What value of Cytotox (% viable) M17 cells at 1 μM has been reported for the following compound? CCC(C)Cn1cnc2c(O)cccc2c1=O (stereo not drawn)
Response: 102.7%
